Species: Rattus norvegicus
Test: Open TG-GATES - Regimen: Daily Repeat
Format: toxicity, organism-based, Sprague-Dawley
Design: regimen Daily Repeat, gender Male, age 6 weeks
Settings: in vivo, po, 0 mg/kg, 72 h, tissue Plasma, route gavage, dose level Control, time 3 day
T if DBIL is below 0.002 mg/dL. F if not; exact matches included in F.

COMPOUND	CLASS
O=C(CCCN1CCC(O)(c2ccc(Cl)cc2)CC1)c1ccc(F)cc1	T
CCOC(=O)CCC(=O)O[C@H]1[C@H](O[C@@H]2[C@@H](C)[C@H](O[C@H]3C[C@@](C)(OC)[C@@H](O)[C@H](C)O3)[C@@H](C)C(=O)O[C@H](CC)[C@@](C)(O)[C@H](O)[C@@H](C)C(=O)[C@H](C)C[C@@]2(C)O)O[C@H](C)C[C@@H]1N(C)C [ERYTHROMYCIN ETHYLSUCCINATE]	T
CC(C)OC(=O)C(C)(C)Oc1ccc(C(=O)c2ccc(Cl)cc2)cc1 [FENOFIBRATE]	F
CN1C(=O)CN=C(c2ccccc2)c2cc(Cl)ccc21	F
CCOc1ccc(NC(=O)CC(C)O)cc1 (stereo not drawn)	F
CCCNC(=O)NS(=O)(=O)c1ccc(Cl)cc1 [CHLORPROPAMIDE]	F

Exercise: Dear reviewer, please state whether `NNC(=O)c1ccncc1` has DBIL strictly beneath 0.002 mg/dL.
Key: F

---

Organism: Rattus norvegicus
Assay: Open TG-GATES - Regimen: Single
Format: toxicity, organism-based, Sprague-Dawley
Set-up: regimen Single, gender Male, age 6 weeks
Details: in vivo, po, 100 mg/kg, 24 h, tissue Plasma, route gavage, dose level High
EXPERIMENTAL ENDPOINT: ALP (IU/L)
Write it as a number; the unit IU/L goes unstated.

Please review the following examples before continuing.
In [3]: df
Out[3]:
                 compound_smiles  data_value
0     CN(C)CCN(Cc1cccs1)c1ccccn1      1813.6
1  CN(C)CCCN1c2ccccc2CCc2ccccc21      1350.6

Exercise: Consider the compound `CC1=C(/C=C/C(C)=C/C=C/C(C)=C/CO)C(C)(C)CCC1` and give its measured ALP.
Key: 1815.8

Exercise: Consider the compound `CN(C)CCCN1c2ccccc2CCc2ccc(Cl)cc21` and give its measured ALP.
Key: 1855

---

Species on record: Rattus norvegicus
Assay: Open TG-GATES - Regimen: Daily Repeat
Format: toxicity, organism-based, Sprague-Dawley
Parameters: regimen Daily Repeat, gender Male, age 6 weeks
Settings: in vivo, po, 300 mg/kg, […], tissue Blood, route gavage, dose level Middle, time 28 day
Items are presented alongside their recorded Neu.
Write it as a number; the unit % goes unstated.

Please review the following examples before continuing.
MOLECULE	Neu, %
CCOc1ccc(NC(=O)CC(C)O)cc1 (stereo not given) [BUCETIN]	20.6
COc1ccc2[nH]c([S+]([O-])Cc3ncc(C)c(OC)c3C)nc2c1 (stereo not given) [OMEPRAZOLE]	15.6
CCOC(=O)CCC(=O)O[C@H]1[C@H](O[C@@H]2[C@@H](C)[C@H](O[C@H]3C[C@@](C)(OC)[C@@H](O)[C@H](C)O3)[C@@H](C)C(=O)O[C@H](CC)[C@@](C)(O)[C@H](O)[C@@H](C)C(=O)[C@H](C)C[C@@]2(C)O)O[C@H](C)C[C@@H]1N(C)C [ERYTHROMYCIN ETHYLSUCCINATE]	9.2
COC1=CC(=O)C[C@@H](C)[C@]12Oc1c(Cl)c(OC)cc(OC)c1C2=O [GRISEOFULVIN]	14.4

Exercise: Consider the molecule NC(N)=Nc1nc(CSCCC(N)=NS(N)(=O)=O)cs1 [FAMOTIDINE] and give its measured Neu.
Key: 13.4

---

Species: Rattus norvegicus
Experiment: Open TG-GATES - Regimen: Daily Repeat
Format: toxicity, organism-based, Sprague-Dawley
Set-up: regimen Daily Repeat, gender Male, age 6 weeks
Conditions: in vivo, po, 100 mg/kg, 72 h, tissue Plasma, route gavage, dose level Low, time 3 day
EXPERIMENTAL ENDPOINT: ALP
Note to self: number, then unit, no commentary.

Please review the following examples before continuing.
MOLECULE	DATA VALUE
COc1ccc2[nH]c([S+]([O-])Cc3ncc(C)c(OC)c3C)nc2c1 (stereo not given) [OMEPRAZOLE]	887.8 IU/L
COC1=CC(=O)C[C@@H](C)[C@]12Oc1c(Cl)c(OC)cc(OC)c1C2=O [GRISEOFULVIN]	947.8 IU/L
CCOc1ccc(NC(=O)CC(C)O)cc1 (stereo not given) [BUCETIN]	1621.2 IU/L
CCOC(=O)CCC(=O)O[C@H]1[C@H](O[C@@H]2[C@@H](C)[C@H](O[C@H]3C[C@@](C)(OC)[C@@H](O)[C@H](C)O3)[C@@H](C)C(=O)O[C@H](CC)[C@@](C)(O)[C@H](O)[C@@H](C)C(=O)[C@H](C)C[C@@]2(C)O)O[C@H](C)C[C@@H]1N(C)C [ERYTHROMYCIN ETHYLSUCCINATE]	1729.8 IU/L

Consider the record given below.
Exercise: Consider the molecule NC(N)=Nc1nc(CSCCC(N)=NS(N)(=O)=O)cs1 [FAMOTIDINE] and give its measured ALP.
Key: 1126.4 IU/L

---

Species on record: Rattus norvegicus
Experiment: Open TG-GATES - Regimen: Single
Type: toxicity, organism-based, Sprague-Dawley
Set-up: regimen Single, gender Male, age 6 weeks
Details: in vivo, po, 0 mg/kg, 9 h, tissue Blood, route gavage, dose level Control
Items are presented alongside their recorded Hb.
Write it as a number; the unit g/dL goes unstated.

>>> print(df.to_string())
                                   molecule  experimental_endpoint  measure_unit  data_value
0  CCOc1ccc(NC(=O)CC(C)O)cc1 (stereo not given)                     Hb          g/dL          13

Exercise: Consider the molecule `NNC(=O)c1ccncc1` and give its measured Hb.
Key: 13.5

Exercise: Consider the molecule `C[C@@H]1C[C@H]2[C@@H]3CCC4=CC(=O)C=C[C@]4(C)[C@@]3(F)[C@@H](O)C[C@]2(C)[C@@]1(O)C(=O)CO` and give its measured Hb.
Key: 13.2

Exercise: Consider the molecule `CN(C)CCCN1c2ccccc2CCc2ccc(Cl)cc21` and give its measured Hb.
Key: 13.4

Exercise: Consider the molecule COc1ccc2[nH]c([S+]([O-])Cc3ncc(C)c(OC)c3C)nc2c1 (stereo not given) and give its measured Hb.
Key: 13.3

---

Organism: Rattus norvegicus
Experiment: Open TG-GATES - Regimen: Single
Assay type: toxicity, organism-based, Sprague-Dawley
Design: regimen Single, gender Male, age 6 weeks
Details: in vivo, po, 1000 mg/kg, 9 h, tissue Plasma, route gavage, dose level High
Items are presented alongside their recorded BUN.
Write it as a number; the unit mg/dL goes unstated.

Please review the following examples before continuing.
COMPOUND	BUN, mg/dL
CCOC(=O)CCC(=O)O[C@H]1[C@H](O[C@@H]2[C@@H](C)[C@H](O[C@H]3C[C@@](C)(OC)[C@@H](O)[C@H](C)O3)[C@@H](C)C(=O)O[C@H](CC)[C@@](C)(O)[C@H](O)[C@@H](C)C(=O)[C@H](C)C[C@@]2(C)O)O[C@H](C)C[C@@H]1N(C)C [ERYTHROMYCIN ETHYLSUCCINATE]	9
COc1ccc2[nH]c([S+]([O-])Cc3ncc(C)c(OC)c3C)nc2c1 (stereo not given)	8
CC(C)OC(=O)C(C)(C)Oc1ccc(C(=O)c2ccc(Cl)cc2)cc1 [FENOFIBRATE]	8
COC1=CC(=O)C[C@@H](C)[C@]12Oc1c(Cl)c(OC)cc(OC)c1C2=O	10.8

Consider the record given below.
Exercise: Consider the compound `NC(N)=Nc1nc(CSCCC(N)=NS(N)(=O)=O)cs1` and give its measured BUN.
Key: 9.8

---

Organism: Rattus norvegicus
Assay: Open TG-GATES - Regimen: Daily Repeat
Type: toxicity, organism-based, Sprague-Dawley
Design: regimen Daily Repeat, gender Male, age 6 weeks
Conditions: in vivo, po, 1000 mg/kg, […], route gavage, dose level High, time 7 day
Items are presented alongside their recorded TERMINAL_BW.
Write it as a number; the unit g goes unstated.

Please review the following examples before continuing.
MOLECULE	TERMINAL_BW [g]
COc1ccc2[nH]c([S+]([O-])Cc3ncc(C)c(OC)c3C)nc2c1 (stereo unspecified) [OMEPRAZOLE]	262
CC(C)OC(=O)C(C)(C)Oc1ccc(C(=O)c2ccc(Cl)cc2)cc1 [FENOFIBRATE]	248.7
CCOc1ccc(NC(=O)CC(C)O)cc1 (stereo unspecified) [BUCETIN]	268.8
CCOC(=O)CCC(=O)O[C@H]1[C@H](O[C@@H]2[C@@H](C)[C@H](O[C@H]3C[C@@](C)(OC)[C@@H](O)[C@H](C)O3)[C@@H](C)C(=O)O[C@H](CC)[C@@](C)(O)[C@H](O)[C@@H](C)C(=O)[C@H](C)C[C@@]2(C)O)O[C@H](C)C[C@@H]1N(C)C [ERYTHROMYCIN ETHYLSUCCINATE]	250.4
NC(N)=Nc1nc(CSCCC(N)=NS(N)(=O)=O)cs1 [FAMOTIDINE]	262.1

Exercise: Consider the molecule COC1=CC(=O)C[C@@H](C)[C@]12Oc1c(Cl)c(OC)cc(OC)c1C2=O [GRISEOFULVIN] and give its measured TERMINAL_BW.
Key: 266.7

Values from ChEMBL document CHEMBL3885861
